Test system: K24384-001-R-PDC complex spheroids, viability;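 further: spheroids exposed to compounds for seven days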
Assay: Anticancer human tumor K24384-001-R-PDC patient-derived pancreatic adenocarcinoma cell line growth inhibition [GQUAD]; active means viability on the fitted dose curve at most 10% of control; inactive means the rest
Details: second compound 1 µM; first compound 10 µM
Outcomes: active, inactive

- molecule: "O=C(NO)c1cnc(N2CCN(S(=O)(=O)c3ccc4ccccc4c3)CC2)nc1 + Cc1[nH]c2ccc(F)cc2c1-c1nc2c3cccnc3c3ncccc3c2[nH]1"
  assay_system: "K24384-001-R-PDC complex spheroids, viability"
  class_label: "active"
- molecule: "C#Cc1c(F)ccc2cc(O)cc(-c3ncc4c(N5CC6CCC(C5)N6)nc(OCC56CCCN5CC(F)C6)nc4c3F)c12 (stereo unspecified) + Cc1[nH]c2ccc(F)cc2c1-c1nc2c3cccnc3c3ncccc3c2[nH]1"
  assay_system: "K24384-001-R-PDC complex spheroids, viability"
  class_label: "inactive"
- molecule: "CC1COCCN1c1cc(-c2ccnn2C)c2ccnc(-c3ccn[nH]3)c2n1 (stereo unspecified) + CN(C)c1ccc(Nc2c3ccc(NC(=O)CCN4CCCC4)cc3nc3cc(NC(=O)CCN4CCCC4)ccc23)cc1"
  assay_system: "K24384-001-R-PDC complex spheroids, viability"
  class_label: "inactive"
- molecule: "O=c1[nH]cc(F)c(=O)[nH]1 + Cc1[nH]c2ccc(F)cc2c1-c1nc2c3cccnc3c3ncccc3c2[nH]1"
  assay_system: "K24384-001-R-PDC complex spheroids, viability"
  class_label: "inactive"
- molecule: "COc1ccc([C@@H](O)c2cc(-c3ncnc4cc(N5CCOCC5)ccc34)c(F)cc2Cl)nn1 + CN(C)c1ccc(Nc2c3ccc(NC(=O)CCN4CCCC4)cc3nc3cc(NC(=O)CCN4CCCC4)ccc23)cc1"
  assay_system: "K24384-001-R-PDC complex spheroids, viability"
  class_label: "inactive"
- molecule: "CC(C)n1c(=O)n(C)c2cnc3cc(F)c(-c4ccc(OCCCN5CCCCC5)nc4)cc3c21 + Cc1[nH]c2ccc(F)cc2c1-c1nc2c3cccnc3c3ncccc3c2[nH]1"
  assay_system: "K24384-001-R-PDC complex spheroids, viability"
  class_label: "inactive"
- molecule: "CC(C)(O)C1CCC(Nc2ccc3ncc(-c4cccc(C(F)(F)F)c4)n3n2)CC1 (stereo unspecified) + CN(C)c1ccc(Nc2c3ccc(NC(=O)CCN4CCCC4)cc3nc3cc(NC(=O)CCN4CCCC4)ccc23)cc1"
  assay_system: "K24384-001-R-PDC complex spheroids, viability"
  class_label: "inactive"
- molecule: "O=c1[nH]cc(F)c(=O)[nH]1 + CN(C)c1ccc(Nc2c3ccc(NC(=O)CCN4CCCC4)cc3nc3cc(NC(=O)CCN4CCCC4)ccc23)cc1"
  assay_system: "K24384-001-R-PDC complex spheroids, viability"
  class_label: "inactive"
- molecule: "O=c1[nH]cc(F)c(=O)[nH]1 + Cc1cnc(CNC(=O)c2c(=O)c3ccc(N4CCCN(C)CC4)nc3n3c2sc2ccccc23)cn1"
  assay_system: "K24384-001-R-PDC complex spheroids, viability"
  class_label: "inactive"
- molecule: "COc1ccc([C@@H](O)c2cc(-c3ncnc4cc(N5CCOCC5)ccc34)c(F)cc2Cl)nn1 + Cc1[nH]c2ccc(F)cc2c1-c1nc2c3cccnc3c3ncccc3c2[nH]1"
  assay_system: "K24384-001-R-PDC complex spheroids, viability"
  class_label: "inactive"
- molecule: "COc1cccc2c1C(=O)c1c(O)c3c(c(O)c1C2=O)CC(O)(C(=O)CO)CC3OC1CC(N)C(O)C(C)O1 (stereo unspecified) + Cc1cnc(CNC(=O)c2c(=O)c3ccc(N4CCCN(C)CC4)nc3n3c2sc2ccccc23)cn1"
  assay_system: "K24384-001-R-PDC complex spheroids, viability"
  class_label: "active"
